tgt: Serine/threonine-protein phosphatase 2A catalytic subunit alpha isoform (Bos taurus)
Sequence (P67774 whole entry, canonical isoform): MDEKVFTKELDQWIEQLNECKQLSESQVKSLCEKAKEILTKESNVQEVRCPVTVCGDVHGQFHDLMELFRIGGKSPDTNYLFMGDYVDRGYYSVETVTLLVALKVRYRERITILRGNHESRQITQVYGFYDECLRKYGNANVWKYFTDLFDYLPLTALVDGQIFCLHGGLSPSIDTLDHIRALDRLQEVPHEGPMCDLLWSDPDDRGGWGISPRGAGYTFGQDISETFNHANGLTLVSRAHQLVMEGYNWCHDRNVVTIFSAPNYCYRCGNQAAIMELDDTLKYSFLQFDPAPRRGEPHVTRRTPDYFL
experiment: Inhibitory concentration against protein phosphatase 2A (PP2A) using phosphorylase-a assay
Set-up: species or system Oryctolagus cuniculus
pIC50: −log10 of the molar value. *1 amine or outer side, *2 acyl side, *3 side chain or, on linkers, in order; H or OH if unused. Where a SMILES comes first, the peptide text is derived from it. Bridges are numbered along the chain shown (N, C = ends). [ ]: non-standard residue; d: D form. Adda = CO[C@@H](Cc1ccccc1)[C@@H](C)/C=C(C)/C=C/[C@H](N[*:1])[C@H](C)C(=O)[*:2]; dAsp(3S-Me) = C[C@H](C(=O)[*:3])[C@@H](N[*:1])C(=O)[*:2]; d(γGlu) = O=C(O)[C@@H](CCC(=O)[*:2])N[*:1]; NMeDha = C=C(NC)C(=O)O
Quick list: pIC50 per entry.
reported_property: pIC50

# compound, value_measured
records = [
    ("C=C1C(=O)N[C@H](C)C(=O)N[C@@H](CC(C)C)C(=O)N[C@@H](C(=O)O)[C@H](C)C(=O)N[C@@H](C)C(=O)N[C@@H](/C=C/C(C)=C/[C@H](C)[C@H](Cc2ccccc2)OC)[C@H](C)C(=O)N[C@@H](C(=O)O)CCC(=O)N1C (A[Adda][d(γGlu)][NMeDha][dA]L[dAsp(3S-Me)]-OH; lactam N-7)", 9.52),
    ("CO[C@@H](Cc1ccccc1)[C@@H](C)/C=C(C)/C=C/[C@H](NC(C)=O)[C@H](C)C(=O)NCC(=O)O", 6.30),
    ("CO[C@@H](Cc1ccccc1)[C@@H](C)/C=C(C)/C=C/[C@H](NC(C)=O)[C@H](C)C(=O)N[C@H](C)C(=O)O", 6.80),
    ("CO[C@@H](Cc1ccccc1)[C@@H](C)/C=C(C)/C=C/[C@H](NC(C)=O)[C@H](C)C(=O)N[C@@H](C)C(=O)O", 5.11),
]

These measurements were taken from ChEMBL document CHEMBL1136186.
